These data points were gathered from patent US20190153059A1.

Biological target: CLR/RAMP1 receptor (UniProt Q16602 23-461; O60894 27-148, limits assumed)
Sequence (Q16602 23-461 limits assumed, chain 1 of 2): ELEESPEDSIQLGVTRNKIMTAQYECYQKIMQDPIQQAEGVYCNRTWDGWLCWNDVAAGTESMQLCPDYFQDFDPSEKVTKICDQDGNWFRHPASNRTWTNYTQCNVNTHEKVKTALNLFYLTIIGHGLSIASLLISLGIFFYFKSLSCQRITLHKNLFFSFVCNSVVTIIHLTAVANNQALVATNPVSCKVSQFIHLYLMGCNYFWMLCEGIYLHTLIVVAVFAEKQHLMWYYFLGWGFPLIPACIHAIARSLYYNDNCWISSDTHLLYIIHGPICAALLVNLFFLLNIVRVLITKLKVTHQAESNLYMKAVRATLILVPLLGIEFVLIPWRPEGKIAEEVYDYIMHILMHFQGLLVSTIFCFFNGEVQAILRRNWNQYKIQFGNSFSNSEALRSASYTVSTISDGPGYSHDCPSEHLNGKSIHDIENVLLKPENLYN
Sequence (O60894 27-148 limits assumed, chain 2 of 2): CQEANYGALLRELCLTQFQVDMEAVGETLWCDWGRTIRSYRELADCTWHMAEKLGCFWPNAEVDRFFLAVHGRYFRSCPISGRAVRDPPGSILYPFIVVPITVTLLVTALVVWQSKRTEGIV
Assay: cell-based or functional assay
* marks the point of attachment. Palmitoyl = CCCCCCCCCCCCCCCC(=O)*
READOUT_LABEL: CLR/RAMP1 EC50 (nM)
Answers are plain numbers, in nM.

Some binders with recorded CLR/RAMP1 EC50:
{"columns": ["BINDER", "NUMERIC_VALUE"],
 "data": [
  ["Ac-VGCRFGTCTVQKLAHQIYQFTPAGRQDSAPVDPSSPHSY-NH2 (ends and bridges not checked) [SEQ ID NO: 57]", 909],
  ["Palmitoyl-KGCRFGTCTVQKLAHQIYQFTDKDKDNVAPRSKSSPHSY-NH2 (ends and bridges not checked) [SEQ ID NO: 63]", 180],
  ["KGCRFGTCTVQKLAHQIYQFTDKDKDNVAPRSKISPQGY (Ace-PEG3- at N-terminus; K([19-carboxy-nonadecanoyl]-PEG3-isoGlu); -NH2) [SEQ ID NO: 156]", 0.8],
  ["Palmitoyl-GCRFGTCTVQKLAHQIYQFTDKDKDNSAPVDPSSPHSY-NH2 (ends and bridges not checked) [SEQ ID NO: 45]", 0.1]
]}

Okay, now this binder:
Write down CLR/RAMP1 EC50 measured for item Palmitoyl-KCRFGTCTVQKLAHQIYQFTDKDKDNSAPVDPSSPHSY-NH2 (ends and bridges not checked) [SEQ ID NO: 44] 0.1
